System: GC3/M TK- cells
RUN_DESCRIPTION: Inhibition of growth of tumor cells, thymidine kinase-deficient human colon adenocarcinoma GC3/M TK- (MTT)
Type: cell-based
MEASUREMENT_CONDITIONS: Homo sapiens, GC3/MTK-, 120 h, 5 days continuous exposure, MTT; read-out: Cell Culture IC50, GC3-M (TK-)
Protocol: In Vitro Testing to Determine Inhibition of Growth of Tumor Cells Growth was measured over 3 days (L1210) or 5 days (CCRF-CEM, GC3 /M TK^-) of continuous exposure to varying concentrations of each test compound, added 4 h. after initial cell plating, by the MTT-tetrazolium reduction assay of T. J. Mosmann [J. Immunol. Meth. […] Water insoluble derivatives were dissolved in DMSO and diluted to a final concentration of 0.5% solvent in cell cultures.
PROPERTY_NAME: IC50

{"columns": ["COMPOUND", "IC50"],
 "data": [
  ["Cc1nc2cccc(C(O)(c3ccccc3)c3ccccc3)c2c(=O)[nH]1 [Compound 6A]", "> 4.98 µM"],
  ["Cc1nc2cccc(Sc3cc[n+](Cc4ccccc4)cc3)c2c(=O)[nH]1 [Compound 22A]", "> 2.5 µM"],
  ["Cc1ccc2nc(N)[nH]c(=O)c2c1Sc1ccncc1 [Compound 24A]", "1.2 µM"],
  ["Cc1nc2ccc(C)c(Sc3ccc(C(=O)N[C@@H](CCC(=O)O)C(=O)O)cc3)c2c(=O)[nH]1 [Compound 27A]", "4.1 µM"],
  ["Cc1nc2ccc(C)c(Sc3ccc([N+](=O)[O-])cc3)c2c(=O)[nH]1 [Compound 10A]", "> 4 µM"]
]}

# input GET /values?readout=IC50&item= Cc1cc(Sc2c(C)ccc3nc(C)[nH]c(=O)c23)ccn1 [Compound 12A]
# output 5 µM

# input GET /values?readout=IC50&item= Cc1nc2ccc(C)c(Sc3ccc(S(=O)(=O)c4ccccc4)cc3)c2c(=O)[nH]1 [Compound 9A]
# output 4.5 µM

# input GET /values?readout=IC50&item= Cc1nc2ccc(O)c(Sc3ccncc3)c2c(=O)[nH]1 [Compound 15A]
# output > 50 µM

# input GET /values?readout=IC50&item= Cc1ccc2nc(N)[nH]c(=O)c2c1Sc1ccncc1 [Compound 14A]
# output 1 µM

# input GET /values?readout=IC50&item= Cc1ccc2nc(N)[nH]c(=O)c2c1Sc1ccnc(C(F)(F)F)c1 [Compound 18A]
# output > 2 µM

# input GET /values?readout=IC50&item= COc1cc(Sc2c(C)ccc3nc(C)[nH]c(=O)c23)ccn1 [Compound 16A]
# output > 5 µM

# input GET /values?readout=IC50&item= COc1ccc(-c2cncn2Cc2cccc3nc(C)[nH]c(=O)c23)cc1 [Compound 33A]
# output > 25 µM

# input GET /values?readout=IC50&item= Cc1nc2cccc(Cn3ccc4cc(Cl)ccc43)c2c(=O)[nH]1 [Compound 3A]
# output > 12.7 µM

# input GET /values?readout=IC50&item= Cc1nc2ccc(C)c(Sc3ccnnc3)c2c(=O)[nH]1 [Compound 29A]
# output > 12.5 µM

====

Test system: L1210 murine leukemia cells
RUN_DESCRIPTION: Inhibition of growth of tumor cells, L1210 murine leukemia (MTT)
Assay type: cell-based
MEASUREMENT_CONDITIONS: 3 days continuous exposure, MTT; read-out: Cell Culture IC50, L1210
Procedure: In Vitro Testing to Determine Inhibition of Growth of Tumor Cells Growth was measured over 3 days (L1210) or 5 days (CCRF-CEM, GC3 /M TK^-) of continuous exposure to varying concentrations of each test compound, added 4 h. after initial cell plating, by the MTT-tetrazolium reduction assay of T. J. Mosmann [J. Immunol. Meth. […] Water insoluble derivatives were dissolved in DMSO and diluted to a final concentration of 0.5% solvent in cell cultures.
PROPERTY_NAME: IC50 (µM)
// return numeric value only (unit: µM, not printed)

{"columns": ["MOLECULE", "TEST_RESULT"],
 "data": [
  ["Cc1nc2ccc(C)c(Sc3ccncc3)c2c(=O)[nH]1 [Compound 23A]", 3.5]
]}

Query molecule follows.
# input Request: IC50, test system L1210 murine leukemia cells, entry Cc1ccc2nc(N)[nH]c(=O)c2c1Sc1ccncc1 [Compound 25A]
# output 0.59
